# experimental-target: Estrogen receptor beta (Homo sapiens)
# method-summary: qHTS assay to identify small molecule antagonists of the estrogen receptor beta (ER-beta) signaling pathway (AID 1259378)
# measurement-context: ER-beta-UAS-bla HEK293T, beta-lactamase FRET ratio, 16 h; series mostly up to 92.4 µM
Records with an inconclusive call do not appear. Activity calls are given as the source filed them. The call rests on the fitted dose curve; in most records, active means well fitted inhibition curve with a large enough effect in the signal ratio in the repeat runs (not every such curve was filed as active); inconclusive means weak or mixed curves, or effect the other way; inactive means no such curve, though single readings can be large or run the other way; the % refers to the signal ratio.
Labels: true (1) = active, false (0) = inactive

# molecule, experimental-target, category-label
records = [
    ("CCC#N", "Estrogen receptor beta (Homo sapiens)", "false (0)"),
    ("CCC(C)(C)c1cc(-n2nc3ccccc3n2)c(O)c(C(C)(C)CC)c1", "Estrogen receptor beta (Homo sapiens)", "false (0)"),
    ("OCCBr", "Estrogen receptor beta (Homo sapiens)", "false (0)"),
    ("O=C(Cc1ccccc1)OCc1ccccc1", "Estrogen receptor beta (Homo sapiens)", "false (0)"),
    ("N#Cc1ccncc1", "Estrogen receptor beta (Homo sapiens)", "false (0)"),
    ("COC(=O)C(C)Oc1ccc(Oc2ccc(Cl)cc2Cl)cc1 (stereo not drawn)", "Estrogen receptor beta (Homo sapiens)", "false (0)"),
    ("CC(C=O)Cc1ccc2c(c1)OCO2 (stereo not drawn)", "Estrogen receptor beta (Homo sapiens)", "false (0)"),
    ("Nc1n[nH]c(N)n1", "Estrogen receptor beta (Homo sapiens)", "false (0)"),
    ("CCC/C(=N\\OCC)C1=C(O)CC(CC(C)SCC)CC1=O (stereo not drawn)", "Estrogen receptor beta (Homo sapiens)", "false (0)"),
    ("ClCC(Cl)(Cl)Cl", "Estrogen receptor beta (Homo sapiens)", "false (0)"),
    ("O=NN1CCN(N=O)CC1", "Estrogen receptor beta (Homo sapiens)", "false (0)"),
    ("C=CC1CC=CCC1 (stereo not drawn)", "Estrogen receptor beta (Homo sapiens)", "false (0)"),
    ("COC(=O)C(c1ccccc1)C1CCCCN1 (stereo not drawn)", "Estrogen receptor beta (Homo sapiens)", "false (0)"),
    ("O=C1OC(c2ccc(O)c(S(=O)(=O)O)c2)(c2ccc(O)c(S(=O)(=O)O)c2)c2c(Br)c(Br)c(Br)c(Br)c21", "Estrogen receptor beta (Homo sapiens)", "false (0)"),
    ("NC(=O)c1cc([N+](=O)[O-])cc([N+](=O)[O-])c1", "Estrogen receptor beta (Homo sapiens)", "false (0)"),
    ("O=C1CN=C(c2ccccc2)c2cc([N+](=O)[O-])ccc2N1", "Estrogen receptor beta (Homo sapiens)", "false (0)"),
    ("CCOC(=O)N(C)C(=O)CSP(=S)(OCC)OCC", "Estrogen receptor beta (Homo sapiens)", "false (0)"),
    ("C=C(C)CN(CC)c1c([N+](=O)[O-])cc(C(F)(F)F)cc1[N+](=O)[O-]", "Estrogen receptor beta (Homo sapiens)", "false (0)"),
    ("N#CC(CCc1ccc(Cl)cc1)(Cn1cncn1)c1ccccc1 (stereo not drawn)", "Estrogen receptor beta (Homo sapiens)", "true (1)"),
    ("Fc1cc(Br)ccc1CBr", "Estrogen receptor beta (Homo sapiens)", "false (0)"),
    ("CC1COC2(c3ccccc3Cl)c3cc(Cl)ccc3NC(=O)CN12 (stereo not drawn)", "Estrogen receptor beta (Homo sapiens)", "true (1)"),
    ("CCCCOC(=O)c1ccccc1N", "Estrogen receptor beta (Homo sapiens)", "false (0)"),
    ("CNCC(=O)c1ccc(O)c(O)c1", "Estrogen receptor beta (Homo sapiens)", "false (0)"),
    ("Clc1ccccc1N1CCNCC1", "Estrogen receptor beta (Homo sapiens)", "false (0)"),
    ("Fc1ccc(C2(Cn3cncn3)OC2c2ccccc2Cl)cc1 (stereo not drawn)", "Estrogen receptor beta (Homo sapiens)", "true (1)"),
    ("O=C1OC(CCN2CCCCC2)OC1(c1ccccc1)c1ccccc1 (stereo not drawn)", "Estrogen receptor beta (Homo sapiens)", "false (0)"),
    ("Nc1cnn(-c2ccccc2)c(=O)c1Cl", "Estrogen receptor beta (Homo sapiens)", "false (0)"),
    ("CC1CN1P(=O)(N1CC1C)N1CC1C (stereo not drawn)", "Estrogen receptor beta (Homo sapiens)", "false (0)"),
]
